tested on: SN12C; assay: NCI tumour cell line growth inhibition, 48 h
Active and inactive are the calls of the source. Cut-off read from the data, not from the text of the source: active = GI50 up to about 1.1 µM and inactive = higher.
API: response.call in Y (active), N (inactive)

See these solved cases before continuing.
compound: CC[C@@]1(O)C(=O)OCc2c1cc1n(c2=O)Cc2c-1nc1ccccc1c2/C=N\NC(=O)C(N)Cc1c[nH]cn1 (some centres undefined)
target.system: SN12C
class.label: Y
//
compound: Nc1cccc2nsnc12
target.system: SN12C
class.label: N
//
compound: CSc1nc(NC2OC(CO)C(O)C(O)C2O)c(N)c(=O)n1C (centres undefined)
target.system: SN12C
class.label: N

Record request — test call for CC1(C)OCC(C2OC(C)(C)OC2[C@H]2O[C@@]3(O)[C@H]4[C@H](C=CC[C@@H]42)[C@@H](OCc2ccccc2)[C@H](OCc2ccccc2)[C@H]3OCc2ccccc2)O1 (some centres undefined) N

Let us now turn to C[Si](C)(C)/N=C1\N2C(=NC1(C(F)(F)F)C(F)(F)F)Sc1ccccc12 N

Let us now turn to COC(C/C(=C/CO[Si](C(C)C)(C(C)C)C(C)C)C(=O)N(C(=O)OC(C)(C)C)c1ccccc1I)OC N

Let us now turn to O=C(/C=C/c1ccc(O)c(O)c1)NC(CO)C(=O)O (centres undefined) N

Let us now turn to CCN(CC)CCCC(C)Nc1ccnc2cc3ccccc3cc12 (centres undefined) N

Let us now turn to O=C(N/N=C\c1c(O)ccc2ccccc12)c1ccncc1 Y
